# system_under_test: UniProt:P23743
# Sequence (P23743 whole entry, looked up): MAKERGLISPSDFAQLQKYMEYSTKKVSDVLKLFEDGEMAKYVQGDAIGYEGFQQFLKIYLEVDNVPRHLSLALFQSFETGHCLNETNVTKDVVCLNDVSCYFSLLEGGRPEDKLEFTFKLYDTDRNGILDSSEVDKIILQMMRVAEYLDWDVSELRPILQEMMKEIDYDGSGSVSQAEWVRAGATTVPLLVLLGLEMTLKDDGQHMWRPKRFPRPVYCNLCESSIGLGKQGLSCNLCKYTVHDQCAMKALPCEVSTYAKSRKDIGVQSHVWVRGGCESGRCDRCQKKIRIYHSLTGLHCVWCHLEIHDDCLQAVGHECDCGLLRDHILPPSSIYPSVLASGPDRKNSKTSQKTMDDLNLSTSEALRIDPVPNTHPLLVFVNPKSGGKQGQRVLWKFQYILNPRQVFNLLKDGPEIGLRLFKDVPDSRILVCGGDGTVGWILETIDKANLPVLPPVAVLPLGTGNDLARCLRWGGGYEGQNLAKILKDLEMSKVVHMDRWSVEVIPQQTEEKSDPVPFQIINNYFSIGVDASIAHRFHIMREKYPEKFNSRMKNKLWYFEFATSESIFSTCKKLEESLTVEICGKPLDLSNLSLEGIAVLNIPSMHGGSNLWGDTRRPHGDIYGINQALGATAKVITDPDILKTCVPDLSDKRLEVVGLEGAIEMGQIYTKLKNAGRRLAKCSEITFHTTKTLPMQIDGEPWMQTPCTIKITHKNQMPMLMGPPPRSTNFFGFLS
# assay_details: biochemical
# Assay type: biochemical
# run_parameters: liposome (LIPGLO) assay; read-out: DGKα LIPGLO IC50
parameter_measured: pIC50
In plain terms, pIC50 is the concentration in mol/L turned into minus its base-10 logarithm.

molecule: Cn1c(=O)cc(N2CCC(Oc3ccc(C4CC4)cc3)CC2)c2nc(C#N)ccc21
pIC50: 6.00

So the reported pIC50 for CC[C@@H]1CN(c2cc(=O)n(C)c3ccc(C#N)nc23)CC[C@H]1Oc1cccc(C(F)(F)F)c1 (single isomer, unassigned) [Example 142] , on UniProt:P23743, turned out to be 5.33

Form: item Cn1c(=O)c(C#N)c(N2CCC(Oc3ccc(C(C)(C)C)cc3)CC2)c2nc(Cl)ccc21 ; test system UniProt:P23743; pIC50: 6.29

The reported pIC50 value, UniProt:P23743, for Cn1c(=O)c(C#N)c(N2CCC(Oc3ccccc3F)CC2)c2nc(Cl)ccc21 reads 5.77

Summary: Cn1c(=O)c(C#N)c(N2CCC(Oc3ccc(Cl)cc3)CC2)c2nc(Cl)ccc21 , UniProt:P23743, pIC50 = 5.77

Observed pIC50, UniProt:P23743, Cn1c(=O)cc(N2CCC(Oc3ccc(Cl)cn3)CC2)c2nc(C#N)ccc21 : 5.80

Reading of pIC50 for Cn1c(=O)c(C#N)c(N2CCC(Oc3cccc(C#N)c3)CC2)c2nc(Cl)ccc21 with UniProt:P23743: 5.96

Observed pIC50, UniProt:P23743, Cc1cc(F)cc(OC2CCN(c3c([N+](=O)[O-])c(=O)n(C)c4ccc(F)cc34)CC2)c1 : 6.62
